The origin of these recorded values is patent US20240317858A1.

Molecular target: T1, Human CD3εδ Fc heterodimer (Hu CD3ε Fc + CD3δ Fc-HIS) (human, UniProt P07766 22-126; P04234 22-100)
T1 construct: range 22-126;range 22-100; Made in HEK 293 cells with a heterologous signal peptide; also called Hu CD3εδ-Fc; CD3εδ Fc-HIS heterodimer; not shown: Fc; Fc followed by HIS tag
T1 sequence (P07766 22-126, stated change not applied, form in doubt, chain 1 of 2): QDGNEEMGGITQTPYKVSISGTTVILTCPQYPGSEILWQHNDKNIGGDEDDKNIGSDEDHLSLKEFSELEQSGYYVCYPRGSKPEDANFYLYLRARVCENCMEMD
T1 sequence (P04234 22-100, stated change not applied, form in doubt, chain 2 of 2): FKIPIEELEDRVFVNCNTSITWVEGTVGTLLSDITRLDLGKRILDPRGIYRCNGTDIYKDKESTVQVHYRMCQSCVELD
Assay: SPR (Biacore), Fab over immobilized CD3εδ Fc, pH 6.0
pKd: −log10 of the molar value.
# pKd annotations
endpoint: pKd

INSERT INTO assay_data (binder, recorded_measurement) VALUES
  ('Antibody No. V017 (ADI-76360) Fab (Fab, V domains shown, Fab by papain digestion of the IgG1) VH: QVQLVQSGAEVKKPGASVKVSCKASGFNIKDYYMHWVRQAPGQRLEWMGWIDLENADTIYDAKFQGRVTITRDTSASTAYMELSSLRSEDTAVYYCGRDAYGRYFYDVWGQGTLVTVSS VL: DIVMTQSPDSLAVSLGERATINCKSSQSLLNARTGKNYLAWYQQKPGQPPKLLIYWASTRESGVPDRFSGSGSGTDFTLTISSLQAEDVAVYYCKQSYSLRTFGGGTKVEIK', 7.60),
  ('Antibody No. V013 (ADI-70330) Fab (Fab, V domains shown, Fab by papain digestion of the IgG1) VH: QVQLVQSGAEVKKPGASVKVSCKASGFNIDDYYMHWVRQAPGQRLEWIGWIDLENANTVDDAKFQGRVTITRDTSASTAYMELSSLRSEDTAVYYCARDAYGRYFYDVWGQGTLVTVSS VL: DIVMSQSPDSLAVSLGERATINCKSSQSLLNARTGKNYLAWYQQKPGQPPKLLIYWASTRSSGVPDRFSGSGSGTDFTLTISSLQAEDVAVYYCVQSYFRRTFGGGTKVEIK', 8.80),
  ('Antibody No. A001 (ADI-26906) Fab (Fab, V domains shown, Fab by papain digestion of the IgG1) VH: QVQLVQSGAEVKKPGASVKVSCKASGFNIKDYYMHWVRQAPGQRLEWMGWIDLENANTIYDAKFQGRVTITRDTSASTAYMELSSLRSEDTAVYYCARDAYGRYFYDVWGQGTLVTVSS VL: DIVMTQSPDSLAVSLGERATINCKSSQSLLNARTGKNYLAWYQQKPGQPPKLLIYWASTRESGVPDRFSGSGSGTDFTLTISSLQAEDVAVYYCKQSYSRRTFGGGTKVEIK', 8.89),
  ('Antibody No. A004 (ADI-26920) Fab (Fab, V domains shown, Fab by papain digestion of the IgG1) VH: QVQLVQSGAEVKKPGASVKVSCKASGFNIKDYYMHWVRQAPGQRLEWMGWIDLENANTIYDAKFQGRVTITRDTSASTAYMELSSLRSEDTAVYYCGRDAYGRYFYDVWGQGTLVTVSS VL: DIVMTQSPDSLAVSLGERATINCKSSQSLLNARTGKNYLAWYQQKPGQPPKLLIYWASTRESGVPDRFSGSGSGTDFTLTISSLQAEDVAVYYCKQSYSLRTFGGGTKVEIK', 7.80),
  ('Antibody No. V010 (ADI-70327) Fab (Fab, V domains shown, Fab by papain digestion of the IgG1) VH: QVQLVQSGAEVKKPGASVKVSCKASGFDIKDYYMHWVRQAPGQRLEWIGWIELENDDTVYDAKFQGRVTITRDTSASTAYMELSSLRSEDTAVYYCARDAYGRYFYDVWGQGTLVTVSS VL: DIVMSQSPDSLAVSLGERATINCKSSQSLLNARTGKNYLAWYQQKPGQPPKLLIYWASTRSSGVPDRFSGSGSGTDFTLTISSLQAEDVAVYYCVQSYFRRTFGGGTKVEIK', 8.51);
